# MEASUREMENT_TARGET: Protein farnesyltransferase (Homo sapiens, UniProt P49354+P49356)
# EXPERIMENT: Kinetic parameter for inhibition of farnesyl protein transferase
READOUT_KIND: pKi
Numbers only, as −log10 of the molar value.

Asked: Output measured pKi for this item: C=C1C(=O)O[C@H]2[C@H]1[C@@H](OC(C)=O)C/C(C)=C/CC/C(C)=C/CC[C@@]1(C)O[C@H]21
Given back: 6.77

====

# MEASUREMENT_TARGET: Protein farnesyltransferase (Homo sapiens, UniProt P49354+P49356)
# EXPERIMENT: Inhibition of recombinant human farnesyl protein transferase
READOUT_KIND: IC50 (nM)
Give bare numbers, in nM.

Asked: Output measured IC50 for this item: C=C1C(=O)O[C@H]2[C@H]1[C@@H](OC(C)=O)C/C(C)=C/CC/C(C)=C/CC[C@@]1(C)O[C@H]21
Given back: 150
